# test.system: T1, maltose-binding protein-fused CD30 (Homo sapiens, UniProt P28908-1)
# T1 construct: signal peptide in the construct; human CD30 extracellular domains, residues 1-336; also called CD30-MBP; source: Expi293, purified (Ni-NTA, Superdex200); not shown: MBP, C-terminal, kept
# T1 sequence (P28908 19-336): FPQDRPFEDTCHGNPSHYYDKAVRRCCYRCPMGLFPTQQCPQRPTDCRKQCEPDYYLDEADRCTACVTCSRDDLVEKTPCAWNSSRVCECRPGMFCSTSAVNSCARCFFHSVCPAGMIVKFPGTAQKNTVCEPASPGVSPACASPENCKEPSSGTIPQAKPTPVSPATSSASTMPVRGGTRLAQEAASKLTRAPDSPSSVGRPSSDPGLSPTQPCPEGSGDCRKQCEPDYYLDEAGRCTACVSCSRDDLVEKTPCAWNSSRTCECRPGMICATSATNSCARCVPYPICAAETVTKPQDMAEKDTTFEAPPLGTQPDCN
# test.name: SPR; Biacore T200; cAb or BpAb captured on anti-human Fc (CM5), CD30-MBP flowed at 0, 2 and 20 nM (0, 20 and 200 nM for T426), contact 90 s, dissociation 300 s; 'at a rough level'
# assay.conditions: both partners purified
measurement.kind: binding result

INSERT INTO results (binder, measurement_kind, assay_value) VALUES
  ('T6 cAb (antibody, V domains shown) VH: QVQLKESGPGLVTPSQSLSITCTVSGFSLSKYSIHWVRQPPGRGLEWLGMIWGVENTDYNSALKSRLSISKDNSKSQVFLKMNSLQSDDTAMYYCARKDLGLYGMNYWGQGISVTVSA VL: DIVMTQSQKFMSTSVGDRVSVTCKASQNVGTNVAWYQQKPGQSPKALFYSASYRYSGVPDRFIGSGSGTVFTLTISNVQSEDLAEYFCQQYNTYPLTFGSGTKLEIE', 'binding result', 'binds'),
  ('AC10 cAb (antibody, V domains shown) VH: QIQLQQSGPEVVKPGASVKISCKASGYTFTDYYITWVKQKPGQGLEWIGWIYPGSGNTKYNEKFKGKATLTVDTSSSTAFMQLSSLTSEDTAVYFCANYGNYWFAYWGQGTQVTVSA VL: DIVLTQSPASLAVSLGQRATISCKASQSVDFDGDSYMNWYQQKPGQPPKVLIYAASNLESGIPARFSGSGSGTDFTLNIHPVEEEDAATYYCQQSNEDPWTFGGGTKLEIK', 'binding result', 'binds');
